method_description: Phase 1 crossover PK study: oral solution fed/fasted vs IV infusion in healthy subjects
Format: in vivo, human
condition_label: human, plasma, po, 3.3 mg/kg, oral 3.3 mg/kg fasted state, human plasma; read-out: Cmax Arithmetic Mean
Protocol: This pharmacokinetic (PK) study in healthy subjects was conducted to characterize and compare the PK parameters in plasma following a single intravenous (IV) dose of Elraglusib Injection, Elraglusib Oral Solution after fasting, and Elraglusib Oral Solution after a high-fat meal (fed). […] PK parameters including AUC, Cmax, Tmax, and t1/2 were analyzed by standard non-compartmental analysis (NCA) methods following each of the elraglusib doses. […]
experimental_readout: Cmax (ng/mL)

>  <chemical_smiles>
Cn1cc(C2=C(c3coc4ccc(F)cc34)C(=O)NC2=O)c2cc3c(cc21)OCO3

>  <result_value>
172

$$$$

* * *

method_description: Phase 1 crossover PK study: oral solution fed/fasted vs IV infusion in healthy subjects
Assay type: in vivo, human
condition_label: human, plasma, po, 3.3 mg/kg, oral 3.3 mg/kg fed state, human plasma; read-out: AUC72 Arithmetic Mean
experimental_readout: AUC (ng·h/mL)

>  <chemical_smiles>
Cn1cc(C2=C(c3coc4ccc(F)cc34)C(=O)NC2=O)c2cc3c(cc21)OCO3

>  <unit_of_measurement>
ng·h/mL

>  <result_value>
4780

$$$$

* * *

method_description: Phase 1 crossover PK study: oral solution fed/fasted vs IV infusion in healthy subjects
Type: in vivo, human
condition_label: human, plasma, iv, 3.3 mg/kg, IV infusion 3.3 mg/kg, human plasma; read-out: AUC96 Median

>  <chemical_smiles>
Cn1cc(C2=C(c3coc4ccc(F)cc34)C(=O)NC2=O)c2cc3c(cc21)OCO3

>  <unit_of_measurement>
ng·h/mL

>  <AUC>
8250

$$$$

* * *

method_description: Phase 1 crossover PK study: oral solution fed/fasted vs IV infusion in healthy subjects
Format: in vivo, human
condition_label: human, plasma, po, 3.3 mg/kg, oral 3.3 mg/kg, Fed; read-out: AUClast LS Means

>  <chemical_smiles>
Cn1cc(C2=C(c3coc4ccc(F)cc34)C(=O)NC2=O)c2cc3c(cc21)OCO3

>  <unit_of_measurement>
ng·h/mL

>  <AUC(0-t)>
4250

$$$$

* * *

method_description: Quantitative solubility by HPLC in organic solvents and surfactants
Type: physicochemical
condition_label: H2O with Tween 80 10% w/v, aqueous with cosolvent or surfactant or cyclodextrin, thermodynamic from solid; H2O, Tween 80 10% w/v; read-out: Solubility (n = 2) by HPLC

>  <chemical_smiles>
Cn1cc(C2=C(c3coc4ccc(F)cc34)C(=O)NC2=O)c2cc3c(cc21)OCO3

>  <solubility / mg/mL>
0.24

$$$$

* * *

method_description: in vivo
Set-up: species or system Beagle dogs
condition_label: male, Beagle, dog, po, 20 mg/kg, AUClast

>  <chemical_smiles>
Cn1cc(C2=C(c3coc4ccc(F)cc34)C(=O)NC2=O)c2cc3c(cc21)OCO3

>  <AUC(0-t)>
21300 ng·h/mL

$$$$

* * *

method_description: Phase 1 crossover PK study: oral solution fed/fasted vs IV infusion in healthy subjects
Type: in vivo, human
condition_label: human, plasma, po, 3.3 mg/kg, oral 3.3 mg/kg fasted state, human plasma; read-out: t1/2 Arithmetic Mean (converted)
experimental_readout: half-life

>  <molecule>
Cn1cc(C2=C(c3coc4ccc(F)cc34)C(=O)NC2=O)c2cc3c(cc21)OCO3 [elraglusib]

>  <experimental_readout>
half-life

>  <result_value>
16.4 h

$$$$

The reported numbers originate from patent US20250325517A1.
